# System: CCRF-CEM leukemia
# run.description: NCI tumour cell line growth inhibition, 48 h; in the data active = GI50 below about 0.43 µM; inactive = the rest
Where a SMILES comes first, the peptide text is derived from it. [ ]: non-standard residue; d: D form. The star is where a group is joined. ξ: configuration not given here. NMeF = CN[C@@H](Cc1ccccc1)C(=O)O; NMeV = CN[C@H](C(=O)O)C(C)C; ξNMeN = CNC(CC(N)=O)C(=O)O; NMeA = CN[C@@H](C)C(=O)O; ξNMeV = CNC(C(=O)O)C(C)C; Boc = CC(C)(C)OC(=O)*
Respond only with the outcome that fits, drawn from True (active), False (inactive)

Problem: Fill in: this test's call for O=c1ccccc(-c2ccc(Br)cc2)c1O is ___
Solution: True

Problem: Moving on to COc1ccc(/C=C/C2C(C#N)=C(N)OC3=C2C(=O)CCC3)cc1 (centres undefined)
Solution: False

Problem: Same lookup for Cc1ccc(CN(C)c2ccc(CO)c(Cl)c2)cc1 , please.
Solution: False

Next:
Problem: Just curious, what result did [2H]c1nc(C)nc([2H])c1-c1cc(NC[C@@H](C)c2cccc3c(C(=O)NC)ccnc23)ncn1 get here?
Solution: False

Problem: Ok, now COc1cc(C2CC(c3cccc(Nc4ccncc4)c3)=NN2c2ccccc2)cc(OC)c1OC (centres undefined)
Solution: False

Problem: Next compound up: COC(=O)[C@H](C)N(C)C(=O)C(CC(N)=O)N(C)C(=O)[C@H](Cc1ccccc1)N(C)C(=O)[C@@H]1CCCN1C(=O)[C@H](C(C)C)N(C)C(=O)C(C(C)C)N(C)C(=O)[C@@H](NC(=O)OC(C)(C)C)C(C)C (some centres undefined) (Boc-V[ξNMeV][NMeV]P[NMeF][ξNMeN][NMeA]-OMe)
Solution: False

Problem: Next: Cc1nc2cc(-c3nn(C(C)C)c4ncnc(N)c34)ccc2o1
Solution: True

Problem: Entry to check: COc1ccc(C(=S)N(C)NC(=O)CC(=O)NN(C)C(=S)c2ccc(OC)cc2)cc1
Solution: False

Problem: Same for Cc1cc(=O)n2nnc3c4ccccc4ccc3n12
Solution: False

Problem: Also check CC(C)Oc1ccc(-c2nn([C@@H](C)c3oc4ccc(F)cc4c(=O)c3-c3cccc(F)c3)c3ncnc(N)c23)cc1F
Solution: False

Problem: Param item: O=c1ncc(I)cn1C1CC(O)C(CO)O1 (centres undefined)
Solution: False

Problem: How about Nc1nc2cc(O)ccc2n2cc3c(F)cccc3c12 ?
Solution: False

Problem: Note, next up: C=C1C(O)C2C(=C(CCC3CC3)C13CC3)C(=O)C(C)(C)C2O (centres undefined)
Solution: False

Problem: Another: CCCN1C/C(=C\c2ccc(O)c(OC)c2)C(=O)/C(=C/c2ccc(O)c(OC)c2)C1
Solution: False

* * *

# Tested on: HT29 colon
# run.description: NCI tumour cell line growth inhibition, 48 h
property.measured: log10 of TGI (log10 of the value in µM)
All values: base-10 log of TGI in µM.

Sample records with log10 of TGI:
Problem: I would be grateful if you could share the reported log10 of TGI for O=c1ccccc(-c2ccc(Br)cc2)c1O .
Solution: 1.57

Problem: Repeat for the following compound: COc1ccc(-c2ccc(-c3ccc(C(=N)N)c(F)c3)s2)cc1
Solution: -0.15

Problem: Param item: COc1ccc(/C=C2\COc3ccc(O)c(O)c3C2=O)cc1
Solution: 1.29

Problem: Same question for COC(=O)c1cnc(Cl)c([N+](=O)[O-])c1 please.
Solution: 1.51

More entries:
Problem: Look up log10 of TGI for this compound: CCN(CC)CCN1C(=O)CC2[C@@H]3CCc4cc(OC)ccc4C3CC[C@]2(C)C1=O (some centres not stated)
Solution: 1.62

* * *

# Test system: OVCAR-8 ovarian
# run.description: NCI tumour cell line growth inhibition, 48 h
property.measured: TGI

Examples with answers:
Problem: I'd like to know its TGI. The molecule in question is c1ccc(CC(Cc2ccccc2)C2=NCCCN2)cc1
Solution: > 100 µM

Problem: // next record CC(=O)N1CCC(Nc2ncc3cc(Oc4ccc(F)cc4F)c(=O)n(C)c3n2)CC1
Solution: > 25 µM

Problem: Here is the next molecule: CCSc1n/c(=C\c2ccc(N(C)C)cc2)c2nnnn12
Solution: > 100 µM

We next turn to a different molecule, shown below.
Problem: What measured TGI goes with CCOC(=O)[C@H]1Nc2ccc(Cl)cc2[C@H]2CCC[C@@H]12 ?
Solution: > 100 µM

* * *

# System: K-562 leukemia
# run.description: NCI tumour cell line growth inhibition, 48 h
property.measured: TGI

Answered cases to consult:
Problem: Query: TGI; subject: C=C(CCOC)CCC1CCCCC/C1=N\N(C)C (stereo not given)
Solution: > 100 µM

Problem: Consider next the compound CCC(=O)OC1=C(c2ccccc2)Sc2ccc(Cl)cc2-n2cccc21 in the same way.
Solution: > 10 µM

Problem: Can you handle COc1cc2nn(-c3ccccc3)nc2c2nonc12 next?
Solution: > 100 µM

Problem: What do you get for Cc1cc(N(CCC#N)CCC#N)ccc1/C=N/NC(=O)c1ccccc1 ?
Solution: > 100 µM

Problem: Next entry: CC1=C(C(=O)CC(=O)C(=O)Nc2ccc(Cl)cc2C)Sc2ccccc2N1
Solution: > 100 µM

Further cases:
Problem: Which TGI is listed for COc1ccc(/C=C2\CCC(CN3CCOCC3)C2=O)cc1 (stereo not given) ?
Solution: 6.02 µM

Problem: Could you do the same for COc1cc(OC)c(/C=C/c2cc[n+](C)c3ccccc23)c(OC)c1 , please?
Solution: > 100 µM

Problem: Likewise for N#CC(C/C=C/c1ccccc1)NNC(=O)c1c(Cl)c(Cl)c(Cl)c(Cl)c1-c1nc2ccc(C(=O)c3ccccc3)cc2[nH]1 (stereo not given) ?
Solution: 55.2 µM

Problem: Then O=C1C(Cl)C2(CC(/C=C/c3cccs3)=NN2c2cccc(S(=O)(=O)O)c2)N1c1nc2ccccc2s1 (stereo not given) ?
Solution: > 100 µM

Problem: Would you kindly repeat that for Cc1ccccc1NC(=O)/C(=N/NC(=O)CC#N)C1C(=O)N(c2ccccc2)N=C1N (stereo not given) ?
Solution: > 100 µM

* * *

Each entry below carries its recorded TGI.
# Test system: OVCAR-3 ovarian
# run.description: NCI tumour cell line growth inhibition, 48 h
Your answer should be a plain number; it is taken to be in µM.

Take a look at these entries with their results.
Problem: TGI for CN(C)CC1CC/C(=C\c2ccc(Cl)cc2)C1=O (stereo not given) ?
Solution: 18.7

Problem: Same thing, different compound: Cn1cc(-c2csc(-c3c[nH]c4ccccc34)n2)c2cnccc21
Solution: 3.56

Problem: Then this compound: CCOC(=O)/C(C#N)=C\C=C(\Sc1nc2ccccc2s1)c1ccc(Cl)cc1
Solution: 27.5

Problem: Record: CCc1ccc(C(=O)/C=C/C23c4ccccc4C(c4ccccc42)C2C(=O)NC(=O)C23)cc1 (stereo not given)
Solution: 3.1

Problem: Now consider C=CCc1cccc2cc(C(=O)NC3CCCCC3)c(=N)oc12 and answer again.
Solution: 28.3

Problem: Next: COc1ccc(/C=C2\CCC(CN3CCOCC3)C2=O)cc1 (stereo not given)
Solution: 9.36

Problem: // query: Cc1cc(Cl)ccc1OCc1nn2c(CCCCc3nnc4sc(COc5ccc(Cl)cc5C)nn34)nnc2s1
Solution: 72.2

As a next step, examine the compound that follows.
Problem: Return reported TGI; argument: Cc1ccc(CN(C)c2ccc(CO)c(Cl)c2)cc1
Solution: 12.5

* * *

# Tested on: PC-3 prostate
# run.description: NCI tumour cell line growth inhibition, 48 h; in the data active = GI50 below about 0.43 µM; inactive = the rest
Outcome field: choose from Yes = active, No = inactive

Check out these entries, answers already filled in.
Problem: Answer briefly: the call reported for Cc1ccc(CN(C)c2ccc(CO)c(Cl)c2)cc1 in this assay.
Solution: No

Problem: Consider next the compound NCCCCCn1c2c(c3ccccc3c1=O)C(=O)c1ccccc1-2 in the same way.
Solution: No

Problem: What about Cc1ccc(C2=Nc3c(N)nc(N)nc3NC(c3cccc(Nc4ccnc5cc(C(F)(F)F)ccc45)c3)C2)cc1 (stereo not drawn) ?
Solution: No

Problem: Please answer likewise for [2H]c1nc(C)nc([2H])c1-c1cc(NC[C@@H](C)c2cccc3c(C(=O)NC)ccnc23)ncn1
Solution: No

Problem: And then CCOC(=O)/C(C#N)=C\C=C(\Sc1nc2ccccc2s1)c1ccc(Cl)cc1 , what is it?
Solution: No

Further cases:
Problem: Please let me know the test result on file for CCc1ccc(C(=O)/C=C/C23c4ccccc4C(c4ccccc42)C2C(=O)NC(=O)C23)cc1 (stereo not drawn) .
Solution: No

Problem: Another compound to look at: COc1cc(/C=C2\C(=O)Nc3ccccc32)cc(OC)c1O
Solution: No

Problem: Another compound to check: Cc1cc2cn3c4ccc(O)cc4nc(N)c3c2cc1C
Solution: Yes

Problem: And what about the compound O=c1ccccc(-c2ccc(Br)cc2)c1O ?
Solution: No

Problem: Follow-up entry: COc1cc(OC)c(/C=C/c2cc[n+](C)c3ccccc23)c(OC)c1
Solution: No
